System: MV4-11 cells
assay explanation: MV4-11 Cell Cytotoxicity Assay
Format: cell-based, human
experimental context: human, MV4-11 cells, CCK-8
Structures can show the parent of a compound that is named as a salt.
Listed here are compounds together with their documented IC50 at 72 h.

• CCCc1cc(-c2nnc(O)n2-c2ccc(CN3CCN(CC4CCN(C(=O)C[C@@H]5N=C(c6ccc(Cl)cc6)c6c(sc(C)c6C)-n6c(C)nnc65)CC4)CC3)cc2)c(O)cc1O = < 100 nM
• COc1cccc(-c2cc(C(=O)Nc3ccc(-c4ccc(OC5CCN(CC[C@@H]6N=C(c7ccc(Cl)cc7)c7c(sc(C)c7C)-n7c(C)nnc76)CC5)cc4O)cc3)ccc2OC)c1 = > 1000 nM

Note: attention shifts to another entry.
Ask | Give measured IC50 at 72 h for Cc1sc2c(c1C)C(c1ccc(Cl)cc1)=N[C@@H](CC(=O)NC(C)c1ccc(CN3CCC(Cc4ccc(-n5c(O)nnc5-c5cc(C(C)C)c(O)cc5O)cc4)CC3)cc1)c1nnc(C)n1-2 (stereo in doubt) [Compound 82, hydrochloride] (MV4-11 cells).
Reply | < 100 nM

----------
system name: BRD4 (BD1+BD2) (Homo sapiens)
Construct: 1.8 μg/ml recombinant BRD4 (BD1+BD2 domains) protein
experimental context: read-out: BRD4 Binding Potency
pIC50: −log10 of the molar value. Where a name gives a salt, the structure may show the parent alone.
pIC50 values by entry

Before answering, review these 3 worked examples.
• Cc1sc2c(c1C)C(c1ccc(Cl)cc1)=N[C@@H](CC(=O)NCCc1ccc(CN3CCC(Cc4ccc(-n5c(C(=O)NCC(F)(F)F)nnc5-c5cc(C(C)C)c(O)cc5O)cc4)CC3)cc1)c1nnc(C)n1-2 = 6.00 to 7.00
• Cc1sc2c(c1C)C(c1ccc(Cl)cc1)=N[C@@H](CC(=O)N1CCC(N3CCN(c4ccc(-n5c(O)nnc5-c5cc(C(C)C)c(O)cc5O)cc4)CC3)CC1)c1nnc(C)n1-2 = 6.00 to 7.00
• Cc1sc2c(c1C)C(c1ccc(Cl)cc1)=N[C@H](CC(=O)N1CCC(CN3CCN(Cc4ccc(-n5c(O)nnc5-c5cc(C(C)C)c(O)cc5O)cc4)CC3)CC1)c1nnc(C)n1-2 [Compound 125, hydrochloride] = < 6.00

Ask | Dear colleague, please send me the reported pIC50 for Cc1sc2c(c1C)C(c1ccc(Cl)cc1)=N[C@@H](CC(=O)Nc1ccc(NC(=O)C3CCN(Cc4ccc(-n5c(O)nnc5-c5cc(C(C)C)c(O)cc5O)cc4)CC3)cc1)c1nnc(C)n1-2 when you can.
Reply | < 6.00

Ask | Supply recorded pIC50 for Cc1sc2c(c1C)C(c1ccc(Cl)cc1)=N[C@@H](CC(=O)NCC(=O)NCc1ccc(-n3c(O)nnc3-c3cc(C(C)C)c(O)cc3O)cc1)c1nnc(C)n1-2 here.
Reply | 6.00 to 7.00

Ask | Identify pIC50 associated with the molecule Cc1sc2c(c1C)C(c1ccc(Cl)cc1)=N[C@@H](CC(=O)N1CCC(CN3CCN(Cc4ccc(-n5c(C(=O)NC(C)C)nnc5-c5cc(C(C)C)c(O)cc5O)cc4)CC3)CC1)c1nnc(C)n1-2
Reply | < 6.00

Ask | Dear colleague, please send me the reported pIC50 for CCc1cc(-c2nnc(O)n2-c2ccc(CN3CCN(CC4CCN(C(=O)C[C@@H]5N=C(c6ccc(Cl)cc6)c6c(sc(C)c6C)-n6c(C)nnc65)CC4)CC3)cc2)c(O)cc1O [Compound 10, hydrochloride] when you can.
Reply | 6.00 to 7.00

Ask | Could you please provide reported pIC50 for CC[C@@H](C)Nc1cc(C(=O)NC2C[C@H]3CC[C@H](C2)N3c2ccc(C(=O)c3ccc(CN4CCN(CC5CCN(C(=O)C[C@@H]6N=C(c7ccc(Cl)cc7)c7c(sc(C)c7C)-n7c(C)nnc76)CC5)CC4)cc3)cn2)c(C)cc1C(N)=O (stereo partly shown) ? Thanks!
Reply | 6.00 to 7.00

Ask | Determine its reported pIC50: Cc1sc2c(c1C)C(c1ccc(Cl)cc1)=N[C@@H](CC(=O)N1CCC(CN3CCN(Cc4ccc(-n5c(C(N)=O)nnc5-c5cc(C(C)C)c(O)cc5O)cc4)CC3)CC1)c1nnc(C)n1-2
Reply | > 7.00

Ask | // Input: Cc1nn(-c2ccc(C(N)=O)c(NCCOCCNC(=O)C[C@@H]3N=C(c4ccc(Cl)cc4)c4c(sc(C)c4C)-n4c(C)nnc43)c2)c2c1C(=O)CC(C)(C)C2 . Output its pIC50 only.
Reply | < 6.00
